# Test system: LPS-stimulated C57bl/6j peritoneal macrophages
# assay-overview: LPS-induced nitric oxide synthesis in primary peritoneal macrophages (Griess)
# Assay type: cell-based, mice
# assay-conditions: Mus musculus, Peritoneal macrophage; LPS 100 ng/mL; 22 h incubation; n = 3; printed as EC50 in the IC50 column; read-out: NO Synthesis EC50 ± SE
value-kind: EC50 (µM)
Answer with a number only, understood to be in µM.

Q. Report measured EC50; entry is N=C(N)NC(=O)c1cnn(-c2cccc3ncccc23)c1C1CC1 [Zoniporide, zoniporide, reference compound]
A. 15.6

###

value-kind: melting point

In the examples that follow, each entry is paired with its recorded melting point.
Nc1nnc(Cn2c(=O)c3ccccc3n(Cc3nnc(N)[nH]3)c2=O)[nH]1 = 314 to 318 °C
N=C(N)NC(=O)Cn1c(=O)c2ccccc2n(CC(=O)NC(=N)N)c1=O = 336 to 338 °C
N=C(N)NC(=O)Cn1c(=O)c2cc(Br)ccc2n(CC(=O)NC(=N)N)c1=O = > 400 °C

Q. Given Nc1nnc(Cn2c(=O)c3cc(Br)ccc3n(Cc3nnc(N)[nH]3)c2=O)[nH]1 , respond with its melting point.
A. > 400 °C

###

# Test system: rabbit platelets
# assay-overview: ADP-induced platelet aggregation assay
# Type: cell-based
# assay-conditions: Oryctolagus cuniculus, m ± SD, n = 5
Cut-off 50% on inhibition at 100 µM, inclusive. At or above means yes (1); below means no (0).

// known answers, use as guide
N=C(N)NC(=O)c1nc(Cl)c(N)nc1N [Amiloride, amiloride, reference compound] = yes (1)
N=C(N)NC(=O)Cn1c(=O)c2ccccc2n(CC(=O)NC(=N)N)c1=O = no (0)
N=C(N)NC(=O)Cn1c(=O)c2cc(Br)ccc2n(CC(=O)NC(=N)N)c1=O = no (0)
CC(=O)Oc1ccccc1C(=O)O [Acetylsalicylic acid, acetylsalicylic acid, reference compound] = no (0)
Nc1nnc(Cn2c(=O)c3ccccc3n(Cc3nnc(N)[nH]3)c2=O)[nH]1 = no (0)

Q. Assess whether reported inhibition at 100 µM for Nc1nnc(Cn2c(=O)c3cc(Br)ccc3n(Cc3nnc(N)[nH]3)c2=O)[nH]1 sits at 50% or higher.
A. no (0)

###

Each record here notes measured inhibition at 0.01 µM.
# experimental-target: rabbit platelet NHE-1 (Oryctolagus cuniculus)
# Construct: endogenous in cells; host or cells: rabbit platelets
# Sequence (P23791 whole entry): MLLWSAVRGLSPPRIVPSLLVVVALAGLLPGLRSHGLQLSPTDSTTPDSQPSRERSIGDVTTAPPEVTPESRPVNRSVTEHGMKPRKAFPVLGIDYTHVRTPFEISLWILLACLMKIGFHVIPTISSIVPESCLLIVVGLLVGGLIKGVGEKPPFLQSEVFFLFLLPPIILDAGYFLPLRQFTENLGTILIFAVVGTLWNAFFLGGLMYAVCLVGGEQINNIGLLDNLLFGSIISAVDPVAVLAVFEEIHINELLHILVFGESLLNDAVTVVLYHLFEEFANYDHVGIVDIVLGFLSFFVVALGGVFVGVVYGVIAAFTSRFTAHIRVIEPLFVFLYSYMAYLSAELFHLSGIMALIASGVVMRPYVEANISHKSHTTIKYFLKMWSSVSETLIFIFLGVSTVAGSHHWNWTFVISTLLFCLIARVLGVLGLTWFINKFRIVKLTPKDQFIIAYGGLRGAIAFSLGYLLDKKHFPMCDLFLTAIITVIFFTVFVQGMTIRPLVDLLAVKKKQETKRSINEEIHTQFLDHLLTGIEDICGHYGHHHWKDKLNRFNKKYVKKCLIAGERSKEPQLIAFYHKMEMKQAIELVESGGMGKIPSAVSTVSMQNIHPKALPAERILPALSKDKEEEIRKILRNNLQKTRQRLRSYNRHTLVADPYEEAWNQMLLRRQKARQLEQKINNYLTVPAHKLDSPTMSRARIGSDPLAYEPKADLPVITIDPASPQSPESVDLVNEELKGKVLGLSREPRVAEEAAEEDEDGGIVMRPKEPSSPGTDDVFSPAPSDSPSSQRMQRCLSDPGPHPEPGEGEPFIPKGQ
# assay-overview: NHE-1 inhibition assay (rabbit platelets, laser aggregometer)
# Type: cell-based
# assay-conditions: 10 nM; m ± SD, n = 6; rabbit platelets
Dear colleague, please return just the value in %, with no unit written.

Consider the following illustrative entries.
N=C(N)NC(=O)c1nc(Cl)c(N)nc1N [Amiloride, amiloride, reference compound] = 5.39
N=C(N)NC(=O)Cn1c(=O)c2cc(Br)ccc2n(CC(=O)NC(=N)N)c1=O = 10.2
Nc1nnc(Cn2c(=O)c3cc(Br)ccc3n(Cc3nnc(N)[nH]3)c2=O)[nH]1 = 16.2
N=C(N)NC(=O)Cn1c(=O)c2ccccc2n(CC(=O)NC(=N)N)c1=O = 37.2

Note: attention shifts to another entry.
Q. Name the recorded inhibition at 0.01 µM of the molecule listed here: Nc1nnc(Cn2c(=O)c3ccccc3n(Cc3nnc(N)[nH]3)c2=O)[nH]1
A. 29.4
